biological target: purified full-length recombinant human ERβ (Homo sapiens, UniProt Q92731); test: Estrogen receptor β competitive radiometric binding assay ([3H]-E2); settings: ratio of IC50s of E2 and competitor; E2 set at 100%
Sequence (Q92731 whole entry): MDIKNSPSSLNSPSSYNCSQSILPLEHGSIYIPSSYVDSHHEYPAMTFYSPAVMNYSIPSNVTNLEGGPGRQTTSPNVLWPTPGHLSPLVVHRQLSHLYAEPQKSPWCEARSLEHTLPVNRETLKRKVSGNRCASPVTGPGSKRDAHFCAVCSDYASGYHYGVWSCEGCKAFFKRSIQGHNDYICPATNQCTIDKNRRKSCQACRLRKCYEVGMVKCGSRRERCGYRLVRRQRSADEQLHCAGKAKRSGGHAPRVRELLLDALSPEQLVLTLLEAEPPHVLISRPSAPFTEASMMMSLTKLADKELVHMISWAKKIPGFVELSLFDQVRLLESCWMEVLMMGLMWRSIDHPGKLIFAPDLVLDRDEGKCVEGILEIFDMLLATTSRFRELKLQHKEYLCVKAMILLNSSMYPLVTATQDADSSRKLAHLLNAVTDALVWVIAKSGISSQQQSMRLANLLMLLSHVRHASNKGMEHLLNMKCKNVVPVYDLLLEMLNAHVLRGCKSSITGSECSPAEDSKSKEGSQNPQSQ
METRIC NAME: RBA (%) Mean ± S.E.M, ER β

COMPOUND	RECORDED RESULT
Oc1ccc2c(C3CCCC3)n[nH]c2c1	10.4
Oc1ccc2c(C3CCCCC3)n[nH]c2c1	24.6
Oc1ccc2c(C3CCCCC3)noc2c1	9.4
NS(=O)(=O)n1nc(C2CCCCC2)c2ccc(O)cc21	1.0
Oc1ccc(Cc2noc3cc(O)ccc23)cc1	1.0
N#CC(Cc1ccc(O)c(F)c1)c1noc2cc(O)ccc12 (stereo not drawn)	35.9
Oc1ccc2c(C3CCCCCC3)noc2c1	13.2
Oc1ccc2c(C3CCCCC3)nsc2c1	5.1
N#CC(Cc1ccc(F)cc1)c1noc2cc(O)ccc12 (stereo not drawn)	2.5
N#CC(Cc1ccc(O)c(O)c1)c1noc2cc(O)ccc12 (stereo not drawn)	2.4
N#CC(Cc1ccc(O)cc1)c1noc2cc(O)ccc12 (stereo not drawn)	43.0
Cl.Oc1ccc2c(C34CC5CC(CC(C5)C3)C4)n[nH]c2c1	17.7
